# assay.method.text: Reduction of viral RNA and protein in Huh7 cells containing HCV sub-genomic replicon
measured.quantity: pEC50
In plain terms, pEC50 is the concentration in mol/L turned into minus its base-10 logarithm.

Query: Request the reported pEC50 associated with CCC[C@]1(CC(=O)O)OCCc2c1sc1c(C)cc(F)c(C#N)c21
Reply: 5.49
